system-name: T1, human factor XIIa (human, UniProt P00748 20-615, biotinylated with Biotin Ester (Zymed); sites not stated)
T1 chain: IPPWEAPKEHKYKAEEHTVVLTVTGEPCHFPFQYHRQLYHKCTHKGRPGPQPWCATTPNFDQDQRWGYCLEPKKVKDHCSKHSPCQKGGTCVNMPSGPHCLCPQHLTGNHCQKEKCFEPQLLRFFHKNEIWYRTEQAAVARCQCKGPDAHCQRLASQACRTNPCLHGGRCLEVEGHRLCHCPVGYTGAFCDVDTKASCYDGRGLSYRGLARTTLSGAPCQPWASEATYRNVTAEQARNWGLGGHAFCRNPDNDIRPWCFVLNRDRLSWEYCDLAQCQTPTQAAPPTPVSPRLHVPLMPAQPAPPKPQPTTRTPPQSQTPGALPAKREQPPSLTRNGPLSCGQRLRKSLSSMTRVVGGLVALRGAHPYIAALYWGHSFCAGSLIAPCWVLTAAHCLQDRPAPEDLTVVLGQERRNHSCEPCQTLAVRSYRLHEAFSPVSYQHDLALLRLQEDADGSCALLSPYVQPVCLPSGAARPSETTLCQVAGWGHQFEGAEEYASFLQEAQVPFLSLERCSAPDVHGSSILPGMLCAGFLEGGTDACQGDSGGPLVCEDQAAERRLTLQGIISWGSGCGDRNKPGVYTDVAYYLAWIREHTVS
test-description: enzyme inhibition
pKi: −log10 of the molar value.
measure: pKi

In [3]: df
Out[3]:
                                     binder  value
0  TW6163 (protein) EVVREVCSEQAETGPCRAMHSRWYFDVTEGKCAPFFYGGCGGNRNNFDTEEYCMAVCGSAI   5.34
1  TW6210 (protein) EVVREVCSEQAETGPCRAMIQRWYFDVTEGKCAPFFYGGCGGNRNNFDTEEYCMAVCGSAI   6.56
2  CL006 (protein) EVVREVCSEQAETGPCRAMISAWYFDVTEGKCAPFFYGGCGGNRNNFDTEEYCMAVCGSAI   4.05
